The values you see were collected from ChEMBL document CHEMBL4627393.

run_description: Lipophilicity, log D of the compound
Type: physicochemical
condition: octanol/water
measured_metric: logD

Cn1nccc1-c1cc(C(F)(F)F)ccc1[C@H]1CCOc2cc(S(=O)(=O)Nc3cccc(F)n3)ccc21; 3.6
O=C1COCCN1c1cc(C(F)(F)F)ccc1[C@H]1CCOc2cc(S(=O)(=O)Nc3nccs3)ccc21; 1.8
O=S(=O)(Nc1ncccn1)c1ccc2c(c1)OCC[C@@H]2c1ccc(C(F)(F)F)cc1-c1ccc(F)cn1; 2.9
Cc1nc(-c2cc(C(F)(F)F)ccc2[C@H]2CCOc3cc(S(=O)(=O)Nc4nccs4)ccc32)co1; 2.9
O=S(=O)(Nc1ncc(F)cn1)c1ccc2c(c1)OCC[C@@H]2c1ccc(C(F)(F)F)cc1-c1ccc(F)nc1; 2.9
Cn1nccc1-c1cc(C(F)(F)F)ccc1[C@H]1CCOc2cc(S(=O)(=O)Nc3cccnn3)ccc21; 2.2
O=S(=O)(Nc1nccs1)c1ccc2c(c1)OCC[C@H]2c1ccc(C(F)(F)F)cc1-n1ccnn1; 2.3
Cc1ccc(-c2cc(C(F)(F)F)ccc2[C@H]2CCOc3cc(S(=O)(=O)Nc4ccncn4)ccc32)cn1; 3

a: O=S(=O)(Nc1ncccn1)c1ccc2c(c1)CC[C@@H]2c1ccc(C(F)(F)F)cc1N1CCOCC1
b: O=S(=O)(Nc1ccncn1)c1ccc2c(c1)OCC[C@@H]2c1ccc(C(F)(F)F)cc1N1CCOCC1
Which of the two gives a bigger number for logD: a or b ? Identify your pick by its label.
a

I: Cn1nccc1-c1cc(C(F)(F)F)ccc1[C@H]1CCc2cc(S(=O)(=O)Nc3ncccn3)ccc21
II: O=S(=O)(Nc1nccs1)c1ccc2c(c1)OCC[C@@H]2c1ccc(C(F)(F)F)cc1-c1ccc(F)cn1
Which of the two gives a bigger number for logD: I or II ? Identify your pick by its label.
II

a: Cn1nccc1-c1cc(C(F)(F)F)ccc1[C@H]1CCOc2cc(S(=O)(=O)Nc3cc(F)ccn3)ccc21
b: Cn1nccc1-c1cc(C(F)(F)F)ccc1[C@H]1CCOc2cc(S(=O)(=O)Nc3cnccn3)ccc21
Compare logD: is it lower for a or for b ? Identify your pick by its label.
b

1: Cn1nccc1-c1cc(C(F)(F)F)ccc1[C@H]1CCOc2cc(S(=O)(=O)Nc3ccc(F)cn3)ccc21
2: Cn1nccc1-c1cc(C(F)(F)F)ccc1[C@H]1CCOc2cc(S(=O)(=O)Nc3ncc(F)cn3)ccc21
Compare logD: is it lower for 1 or for 2 ? Identify your pick by its label.
2
(2: 2.5, 1: 3.8)

P: O=S(=O)(Nc1ccncn1)c1ccc2c(c1)OCC[C@@H]2c1ccc(C(F)(F)F)cc1-c1ccc(F)cn1
Q: O=C1OCCN1c1cc(C(F)(F)F)ccc1[C@H]1CCOc2cc(S(=O)(=O)Nc3nccs3)ccc21
Compare logD: is it lower for P or for Q ? Identify your pick by its label.
Q
(Q: 2.1, P: 3)

* * *

run_description: Lipophilicity, log D of the compound
Type: physicochemical
condition: octanol/water
measured_metric: logD

CN1CCN(c2cc(C(F)(F)F)ccc2[C@H]2CCOc3cc(S(=O)(=O)Nc4nccs4)ccc32)CC1; 2.1
Cn1nccc1-c1cc(C(F)(F)F)ccc1[C@H]1CCOc2cc(S(=O)(=O)Nc3nccs3)ccc21; 2.2
O=S(=O)(Nc1ncccn1)c1ccc2c(c1)OCC[C@@H]2c1ccc(C(F)(F)F)cc1N1CCOCC1; 2.7
O=S(=O)(Nc1ncccn1)c1ccc2c(c1)CC[C@@H]2c1ccc(C(F)(F)F)cc1-c1ccc(F)nc1; 3.2
Cn1nccc1-c1cc(C(F)(F)F)ccc1[C@H]1CCOc2cc(S(=O)(=O)Nc3ncccn3)ccc21; 3.7
Cc1ccc(-c2cc(C(F)(F)F)ccc2[C@H]2CCOc3cc(S(=O)(=O)Nc4ncc(F)cn4)ccc32)cn1; 2.5
O=S1(=O)CCN(c2cc(C(F)(F)F)ccc2[C@H]2CCOc3cc(S(=O)(=O)Nc4nccs4)ccc32)CC1; 2.5
Cc1nc(-c2cc(C(F)(F)F)ccc2[C@@H]2CCOc3cc(S(=O)(=O)Nc4nccs4)ccc32)co1; 2.9
